The values you see were collected from ChEMBL document CHEMBL3526125.

- assay procedure: Portal bioavailability in P-gp competent CF-1 mouse at 0.23 mg/kg through oral gavage by LC-MS/MS analysis in presence of 1 mM ABT CYP3A inhibitor
- Format: ADME, organism-based
- measurement parameters: in vivo

[
  {
    "compound": "CN(C)C(=O)C(CCN1CCC(O)(c2ccc(Cl)cc2)CC1)(c1ccccc1)c1ccccc1 [LOPERAMIDE]",
    "unit abbreviation": "%",
    "Fg": 3.6
  }
]

---

- assay procedure: AUC (0 to 240 mins) in P-gp deficient CF-1 mouse plasma at 0.23 mg/kg through oral gavage
- Assay type: ADME, organism-based
- Parameters: time < 4 hr, dose 0.23 mg/kg, route oral

[
  {
    "molecule": "CN(C)C(=O)C(CCN1CCC(O)(c2ccc(Cl)cc2)CC1)(c1ccccc1)c1ccccc1 [LOPERAMIDE]",
    "unit abbreviation": "ng·h/mL",
    "AUC(0-t) at 4 h": 1.5
  }
]

---

- Test system: CYP3A
- assay procedure: Drug metabolism in P-gp competent CF-1 mouse intestine assessed as CYP3A-mediated […] by LC-MS/MS analysis
- Type: ADME, tissue-based

[
  {
    "molecule": "CN(C)C(=O)C(CCN1CCC(O)(c2ccc(Cl)cc2)CC1)(c1ccccc1)c1ccccc1 [LOPERAMIDE]",
    "Km, µM": 22
  }
]

---

- assay procedure: AUC (0 to 240 mins) in P-gp competent CF-1 mouse plasma at 0.94 mg/kg through oral gavage
- Format: ADME, organism-based
- Parameters: time < 4 hr, dose 0.94 mg/kg, route oral
measurement label: AUC(0-t) at 4 h

[
  {
    "molecule": "CN(C)C(=O)C(CCN1CCC(O)(c2ccc(Cl)cc2)CC1)(c1ccccc1)c1ccccc1 [LOPERAMIDE]",
    "obs value": "81.7 ng·h/mL"
  }
]

---

- assay procedure: AUC (0 to 120 mins) in P-gp competent CF-1 mouse plasma at 0.4 mg/kg through oral gavage in presence of 1 mM ABT CYP3A inhibitor
- Type: ADME, organism-based
- Parameters: time < 2 hr, dose 0.4 mg/kg, route oral
measurement label: AUC(0-t) at 2 h

[
  {
    "structure as smiles": "C[C@]12CC[C@H]3[C@@H](CCC4=CC(=O)CC[C@@]43C)[C@@H]1CC[C@@H]2O",
    "measurement label": "AUC(0-t) at 2 h",
    "obs value": "1 ng·h/mL"
  }
]

---

- assay procedure: AUC (0 to 240 mins) in P-gp competent CF-1 mouse plasma at 0.47 mg/kg through oral gavage
- Assay type: ADME, organism-based
- Set-up: time < 4 hr, dose 0.47 mg/kg, route oral
measurement label: AUC(0-t) at 4 h (ng·h/mL)

[
  {
    "molecule": "CN(C)C(=O)C(CCN1CCC(O)(c2ccc(Cl)cc2)CC1)(c1ccccc1)c1ccccc1 [LOPERAMIDE]",
    "measurement label": "AUC(0-t) at 4 h",
    "obs value": 4.48
  }
]

---

- System: CYP3A
- assay procedure: Drug metabolism in P-gp deficient CF-1 mouse intestine assessed as CYP3A-mediated […] by LC-MS/MS analysis
- Assay type: ADME, tissue-based
measurement label: Km

[
  {
    "compound": "CN(C)C(=O)C(CCN1CCC(O)(c2ccc(Cl)cc2)CC1)(c1ccccc1)c1ccccc1 [LOPERAMIDE]",
    "obs value": "4.5 µM"
  }
]
